Organism: Rattus norvegicus
Assay Protocol: DrugMatrix - Regimen: Daily Repeat
Type: toxicity, organism-based, Sprague-Dawley
Set-up: regimen Daily Repeat, gender Male, age 6-8 weeks
Experimental Parameters: in vivo, po, 0 mg/kg, 120 h, tissue Blood, route oral GAVAGE, dose level Control, time 5 day, vehicle .5 % CMC
Quantity Kind: LYMPHOCYTE (%)
Answers are plain numbers, in %.

{"Compound": "CC(C)(C)NC(=O)[C@@H]1C[C@@H]2CCCC[C@@H]2CN1C[C@@H](O)[C@H](Cc1ccccc1)NC(=O)[C@H](CC(N)=O)NC(=O)c1ccc2ccccc2n1", "Experimental Value": 90.5}
{"Compound": "NC1=NC(=O)C(c2ccccc2)O1 (centres undefined)", "Experimental Value": 84.17}
{"Compound": "Cc1nc2n(c(=O)c1CCN1CCC(c3noc4cc(F)ccc34)CC1)CCCC2", "Experimental Value": 87.17}
{"Compound": "Nc1ccn([C@H]2CC[C@@H](CO)O2)c(=O)n1", "Experimental Value": 72}
{"Compound": "ClC(Br)Br", "Experimental Value": 85.33}

Each of the following entries comes with a recorded value; kindly state LYMPHOCYTE for each.
1. CCCCc1oc2ccccc2c1C(=O)c1cc(I)c(OCCN(CC)CC)c(I)c1
2. O=C(CCCN1CC=C(n2c(=O)[nH]c3ccccc32)CC1)c1ccc(F)cc1
3. CC1CC(OC(=O)C(O)c2ccccc2)CC(C)(C)C1 (centres undefined) [CYCLANDELATE]

[87.17, 80.83, 83.33]

Entry OCCN(CCO)c1nc(N2CCCCC2)c2nc(N(CCO)CCO)nc(N3CCCCC3)c2n1 has what LYMPHOCYTE?
83.33

Entry source: ChEMBL document CHEMBL3885881
